- targetDesc: C-X-C chemokine receptor type 2 (Homo sapiens)
- Sequence (P25025 whole entry): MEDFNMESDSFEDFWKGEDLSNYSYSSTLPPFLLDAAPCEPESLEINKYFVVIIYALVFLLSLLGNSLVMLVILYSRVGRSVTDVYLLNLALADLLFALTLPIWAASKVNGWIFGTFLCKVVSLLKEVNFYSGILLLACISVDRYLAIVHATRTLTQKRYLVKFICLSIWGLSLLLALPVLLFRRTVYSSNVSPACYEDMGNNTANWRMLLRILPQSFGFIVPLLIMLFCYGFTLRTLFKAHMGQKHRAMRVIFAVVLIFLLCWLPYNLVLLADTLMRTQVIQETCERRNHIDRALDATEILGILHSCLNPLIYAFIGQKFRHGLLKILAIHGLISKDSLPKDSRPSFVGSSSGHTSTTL
readoutName: pKd
Note on units: pKd is unitless, being -log10 of a concentration expressed in mol/L.

Value wanted: pKd (C-X-C chemokine receptor type 2 (Homo sapiens)) of entry C[C@H](CO)Nc1nc(SCc2cccc(F)c2F)nc2[nH]c(=O)cnc12
6.00

###

- targetDesc: C-C chemokine receptor type 5 (Homo sapiens, UniProt P51681)
- Sequence (P51681 whole entry): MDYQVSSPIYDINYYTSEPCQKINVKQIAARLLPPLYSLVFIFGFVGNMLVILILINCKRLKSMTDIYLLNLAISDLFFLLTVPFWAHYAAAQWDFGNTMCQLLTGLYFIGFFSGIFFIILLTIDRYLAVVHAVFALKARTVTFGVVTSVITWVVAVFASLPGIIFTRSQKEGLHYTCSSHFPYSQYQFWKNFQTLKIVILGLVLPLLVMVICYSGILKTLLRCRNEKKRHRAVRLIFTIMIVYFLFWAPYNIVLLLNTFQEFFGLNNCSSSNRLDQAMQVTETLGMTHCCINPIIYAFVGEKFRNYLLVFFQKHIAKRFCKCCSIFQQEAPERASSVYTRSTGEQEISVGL
- assay: Inhibition of wild type CCR5 (unknown origin)
readoutName: IC50 (nM)
// return numeric value only (unit: nM, not printed)

Request: IC50, test system C-C chemokine receptor type 5 (Homo sapiens, UniProt P51681), entry CCCC[C@H]1C[C@@H](N(C)C(C)C)CC[C@H]1NC(=O)CNC(=O)c1cccc(C(F)(F)F)c1
2.5

###

- targetDesc: C-X-C chemokine receptor type 3 (Homo sapiens)
- Sequence (P49682 whole entry): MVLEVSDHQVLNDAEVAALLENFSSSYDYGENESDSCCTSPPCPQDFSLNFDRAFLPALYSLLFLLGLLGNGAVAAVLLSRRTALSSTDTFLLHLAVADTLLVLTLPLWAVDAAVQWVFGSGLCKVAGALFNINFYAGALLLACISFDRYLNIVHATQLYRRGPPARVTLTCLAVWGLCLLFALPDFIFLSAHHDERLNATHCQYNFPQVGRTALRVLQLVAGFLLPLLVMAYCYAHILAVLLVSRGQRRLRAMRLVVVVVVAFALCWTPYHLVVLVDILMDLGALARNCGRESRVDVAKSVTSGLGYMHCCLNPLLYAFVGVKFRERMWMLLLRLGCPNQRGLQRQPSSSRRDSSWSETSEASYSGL
- assay: Inhibition of human wild type CXCR3
Measured pIC50 accompanies every entry in the list below.
Remember, pIC50 is on a log scale: it is -log10 of the molar concentration.

# molSmiles, readoutName, recordedNumber
rows = [
    ("CCNC(=O)c1cnc(N2CCN(C3CCN(Cc4ccc(Cl)cc4)CC3)[C@@H](CC)C2)c(Cl)c1", "pIC50", 7.80),
]

Requested field: pIC50. Item: NCCCC[C@H](NC(=O)[C@@H]1Cc2ccccc2CN1C(=O)CCC(=O)c1ccccc1)C(=O)NCC(c1ccccc1)c1ccccc1
6.00

What does the data say about its pIC50? Entry: CCOc1ccc(-n2c([C@@H](C)N(Cc3cccnc3)C(=O)Cc3ccc(F)c(C(F)(F)F)c3)nc3ncccc3c2=O)cc1
7.20

Ref: ChEMBL document CHEMBL5260798
